system: SK-MEL-28; assay: NCI tumour cell line growth inhibition, 48 h
Active and inactive are the calls of the source. Cut-off read from the data, not from the text of the source: active = GI50 up to about 1.1 µM and inactive = higher.
measure name: GI50

Completed entries (count: 8):
1) Cn1c(=O)c2c(nc(C[N+]3([O-])CCOCC3)n2C)n(C)c1=O ... > 100 µM (inactive)
2) C=C1C(=O)O[C@@H]2/C=C(/C)[C@@H](OC(C)=O)C[C@@H](O)/C(C)=C\[C@@H](OC(=O)[C@]3(C)O[C@@H]3C)[C@@H]12 ... 10.9 µM (inactive)
3) CCOC(=O)Cn1nnc2cc(Nc3c(C)[n+]([O-])c4cc(F)c(OCC)cc4[n+]3[O-])ccc21 ... > 100 µM (inactive)
4) C=C1CC(C)(COc2ccc3ccc(=O)oc3c2)OC1=O (stereo not given) ... 2.94 µM (inactive)
5) COc1ccc(CCc2ccccc2CC(=O)O)cc1 ... > 100 µM (inactive)
6) C[C@@H]1C2=CC[C@@]3(C)C(CCC3[C@H](C)[C@H]3C[C@@]4(C)O[C@@](c5cccnc5)(O3)OC4(C)C)[C@@H]2C2OC2[C@@]12CCC(=O)O2 (stereo not given in full) ... 90.8 µM (inactive)
7) Cc1cc(C)c2c(c1)CN1CN2Cc2cc(C)cc(C)c21 ... 16.5 µM (inactive)
8) O=c1c(O)c(-c2ccc(O)c(O)c2)oc2cc(O)ccc12 ... 21.7 µM (inactive)

Send back SK-MEL-28 GI50 of COc1c(C(=O)/C(=N/Nc2cccc(Cl)c2)C(C)=O)c(O)c(OC)c2occc12 only.
> 100 µM (inactive)

Look up and report GI50, with SK-MEL-28 as system, for COC(O)C(=O)c1c2c(cc3c1CCC3)CCCC2 (stereo not given)
9.48 µM (inactive)
